Tested system: UniProt P05193
Experimental setup: read-out: IC50 β-lactamase CMY-37
Experimental readout: pIC50
Schema: pIC50 number; meaning minus log10 of the concentration expressed in molar units.

NC(=O)c1ccn(C2=CC3CN(C2)C(=O)N3OS(=O)(=O)[O-])n1.[Na+] (centres unmarked) [Example 19]	7.39

Challenge: // pIC50 lookup, key: O=C(NOCCO)c1ccn(C2=CC3CN(C2)C(=O)N3OS(=O)(=O)[O-])n1.[Na+] (centres unmarked) [Example 47]
Response given: 7.49

Challenge: // pIC50 lookup, key: N#Cc1cnn(C2=CC3CN(C2)C(=O)N3OS(=O)(=O)[O-])c1.[Na+] (centres unmarked) [Example 8]
Response given: 7.80
